target: Cyclin-dependent kinase 1/cyclin B1 (Homo sapiens); assay: Inhibition of human recombinant CDK1/cyclin B after 30 mins by fluorescence assay
Sequence (P06493 whole entry): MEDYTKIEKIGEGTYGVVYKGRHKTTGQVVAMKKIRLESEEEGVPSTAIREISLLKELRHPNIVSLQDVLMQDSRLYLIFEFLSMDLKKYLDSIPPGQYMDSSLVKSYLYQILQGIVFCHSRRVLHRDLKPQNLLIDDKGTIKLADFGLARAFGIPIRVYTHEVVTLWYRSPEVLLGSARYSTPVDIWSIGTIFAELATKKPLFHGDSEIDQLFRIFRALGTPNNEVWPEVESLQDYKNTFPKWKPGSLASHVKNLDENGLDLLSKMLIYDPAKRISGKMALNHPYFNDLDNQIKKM
Sequence (P14635 whole entry, further chain): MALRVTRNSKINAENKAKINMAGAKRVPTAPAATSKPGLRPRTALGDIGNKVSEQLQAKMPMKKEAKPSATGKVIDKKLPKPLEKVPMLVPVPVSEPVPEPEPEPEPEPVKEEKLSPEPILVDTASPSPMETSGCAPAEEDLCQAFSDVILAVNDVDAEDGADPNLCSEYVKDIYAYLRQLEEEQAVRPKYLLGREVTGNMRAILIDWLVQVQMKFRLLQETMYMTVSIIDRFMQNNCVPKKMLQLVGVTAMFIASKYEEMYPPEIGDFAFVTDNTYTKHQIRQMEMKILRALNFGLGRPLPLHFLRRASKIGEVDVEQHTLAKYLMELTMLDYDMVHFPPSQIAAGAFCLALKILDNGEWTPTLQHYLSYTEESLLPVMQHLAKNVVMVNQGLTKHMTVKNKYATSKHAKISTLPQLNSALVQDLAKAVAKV
readout.kind: IC50 (nM)

Cn1cc(-c2nc(-c3cn(C)c4ncccc34)cs2)c2cc(F)ccc21 : 860
Cn1cc(-c2nc(-c3c[nH]c4ncccc34)cs2)c2cc(F)ccc21 : 890
Cn1cc(-c2csc(-c3c[nH]c4ccccc34)n2)c2cccnc21 : 750

###

assay: Cytotoxicity against human STO cells assessed as growth inhibition after 72 hrs by MTS assay; type: functional, cell-based
pIC50: −log10 of the molar value.
Consider the following compounds and their measured pIC50 readings.
readout.kind: pIC50

Cn1cc(-c2nc(-c3cn(C)c4ncccc34)cs2)c2cc(F)ccc21 : 6.37
Cn1cc(-c2csc(-c3c[nH]c4ccccc34)n2)c2cccnc21 : 6.48
Cn1cc(-c2csc(-c3c[nH]c4ccc(F)cc34)n2)c2cccnc21 : 6.27
Cn1cc(-c2nc(-c3cn(C)c4ncccc34)cs2)c2ccccc21 : 6.21
Cn1cc(-c2nc(-c3c[nH]c4ncccc34)cs2)c2cc(F)ccc21 : 6.31
